Assay: PK evaluation in beagle dogs
Format: in vivo
Conditions: dog, plasma, iv, intravenously 1 mg/kg single dose, read-out: AUCinf iv
readout: AUC(0-inf) (µg·h/mL)
Your answer is read as µg·h/mL, so omit the unit and give the number.

GET /value?item= Cc1[nH]nc2c1N=C(c1ccccc1Cl)c1cnc(N3CCOCC3)cc1N2 [Crystal form I of compound 29] &field=AUC(0-inf) returns 4.65

###

Target: Aurora A (Homo sapiens, UniProt O14965)
Sequence (O14965 1-403): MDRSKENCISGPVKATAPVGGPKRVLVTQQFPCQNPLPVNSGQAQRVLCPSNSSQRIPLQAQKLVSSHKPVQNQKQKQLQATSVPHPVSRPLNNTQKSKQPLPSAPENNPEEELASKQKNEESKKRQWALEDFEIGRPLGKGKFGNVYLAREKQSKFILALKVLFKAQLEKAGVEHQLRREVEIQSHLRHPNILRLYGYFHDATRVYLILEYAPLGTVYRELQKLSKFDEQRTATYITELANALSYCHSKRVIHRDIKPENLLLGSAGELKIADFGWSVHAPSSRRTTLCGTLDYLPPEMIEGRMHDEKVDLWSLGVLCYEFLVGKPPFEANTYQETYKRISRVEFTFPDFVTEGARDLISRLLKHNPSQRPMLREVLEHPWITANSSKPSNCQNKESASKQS
Assay: Aurora A enzymatic activity test, FAM-labeled peptide, Caliper
Format: biochemical
Details: FAM-labeled peptide substrate, read-out: Kinase-inhibiting activity IC50 Aurora A
pIC50: −log10 of the molar value.
Rule: pIC50 under 9 gives False, otherwise True.

# molecule, group
rows = [
    ("Cc1[nH]nc2c1N=C(c1ccccc1Cl)c1cnc(N3CC4COCC4C3)cc1N2 (centres unmarked)", "True"),
]

In: pIC50 >= 9 for Cc1[nH]nc2c1N=C(c1ccccc1Cl)c1cnc(CN3CCOCC3)cc1N2 ?
Out: False

In: pIC50 >= 9 for Cc1[nH]nc2c1N=C(c1ccccc1Cl)c1cnc(N3CCN(C)C(=O)C3)cc1N2 ?
Out: False

In: pIC50 >= 9 for Cc1[nH]nc2c1N=C(c1ccccc1Cl)c1cnc(N3CCO[C@H](C)C3)cc1N2 (stereo in doubt) ?
Out: False

In: pIC50 >= 9 for Cc1[nH]nc2c1N=C(c1ccccc1Cl)c1cnc(N3CCNCC3)cc1N2 ?
Out: False

###

Target: Aurora B (Homo sapiens)
Sequence (Q96GD4 whole entry): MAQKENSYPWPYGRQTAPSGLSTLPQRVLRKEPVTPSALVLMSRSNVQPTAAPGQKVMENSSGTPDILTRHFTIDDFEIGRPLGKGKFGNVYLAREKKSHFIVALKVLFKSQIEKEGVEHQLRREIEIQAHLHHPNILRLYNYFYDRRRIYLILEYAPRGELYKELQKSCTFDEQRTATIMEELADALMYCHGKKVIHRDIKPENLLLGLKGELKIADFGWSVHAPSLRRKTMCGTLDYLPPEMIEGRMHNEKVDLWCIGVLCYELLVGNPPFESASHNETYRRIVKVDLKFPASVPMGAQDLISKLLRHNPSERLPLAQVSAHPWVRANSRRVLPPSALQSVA
Assay: Aurora B kinase activity test, [γ-33P]-ATP filter membrane
Type: biochemical
Conditions: 40 minutes at room temperature, read-out: Kinase-inhibiting activity IC50 Aurora B
Catalogue of compounds with associated pIC50
Just the number, please; pIC50 means minus log10 of the concentration in mol/L.

# compound, pIC50
records = [
    ("Cc1[nH]nc2c1N=C(c1ccccc1Cl)c1cnc(C3CC3)cc1N2", 8.40),
    ("COc1cc2c(cn1)C(c1ccccc1Cl)=Nc1c(n[nH]c1C)N2", 8.10),
    ("Cc1[nH]nc2c1N=C(c1ccccc1Cl)c1cnc(S(C)(=O)=O)cc1N2", 7.52),
]

GET /value?item= Cc1[nH]nc2c1N=C(c1ccccc1Cl)c1cnc(OC3CCOC3)cc1N2 (stereo not shown) &field=pIC50 returns 8.52

###

Catalogue of compounds with associated pIC50
Test system: HCC1954 breast cancer cells
Experiment: Cell proliferation, Cell Titer-Glo
Assay type: cell-based
Details: Homo sapiens, 72 hours, read-out: Cellular inhibitory activity IC50 HCC1954
Just the number, please; pIC50 means minus log10 of the concentration in mol/L.

# compound, pIC50
measured = [
    ("CCc1cc2c(cn1)C(c1ccccc1Cl)=Nc1c(n[nH]c1C)N2 [Control drug 1-2, reference compound]", 6.05),
    ("CCN1CCN(Cc2cc3c(cn2)C(c2ccccc2Cl)=Nc2c(n[nH]c2C)N3)CC1 [Compound 33]", 6.27),
    ("Cc1[nH]nc2c1N=C(c1ccccc1Cl)c1cnc(CN3CCOCC3)cc1N2 [Compound 35]", 6.14),
]

GET /value?item= Cc1[nH]nc2c1N=C(c1ccccc1Cl)c1cnc(N3CCOCC3)cc1N2 [Compound 29] &field=pIC50 returns 6.40

###

System: A2780 ovarian cancer cells
Test: Cell proliferation, Cell Titer-Glo
Type: cell-based
Settings: Homo sapiens, 72 hours, read-out: Cellular inhibitory activity IC50 A2780
Catalogue of compounds with associated pIC50
Just the number, please; pIC50 means minus log10 of the concentration in mol/L.

# compound, recordedMeasurement
data = [
    ("CCc1cc2c(cn1)C(c1ccccc1Cl)=Nc1c(n[nH]c1C)N2 [Control drug 1-2, reference compound]", 6.19),
    ("Cc1[nH]nc2c1N=C(c1ccccc1Cl)c1cnc(N3CCN(C)CC3)cc1N2", 7.47),
]

For the next question, use this compound.
Lab entry: A2780 ovarian cancer cells assay, compound Cc1[nH]nc2c1N=C(c1ccccc1Cl)c1cnc(N3CCOCC3)cc1N2 , pIC50 = 7.46

###

Target: Aurora B (Homo sapiens)
Test: Aurora B enzymatic activity test, FAM-labeled peptide, Caliper
Format: biochemical
Settings: FAM-labeled peptide substrate, read-out: Kinase-inhibiting activity IC50 Aurora B
Rule: IC50 below 5 nM gives Fulfilled. Equal to or above 5 nM gives Not fulfilled.

Check out these entries, answers already filled in.
# compound, systemTested, group
measured = [
    ("Cc1[nH]nc2c1N=C(c1ccccc1Cl)c1cnc(N3CCN(C)C(=O)C3)cc1N2 [Compound 43]", "Aurora B (Homo sapiens)", "Not fulfilled"),
    ("Cc1[nH]nc2c1N=C(c1ccccc1Cl)c1cnc(CN3CCNCC3)cc1N2 [Compound 38]", "Aurora B (Homo sapiens)", "Not fulfilled"),
    ("Cc1[nH]nc2c1N=C(c1ccccc1Cl)c1cnc(N3CCN(C)[C@H](C)C3)cc1N2 [Compound 42]", "Aurora B (Homo sapiens)", "Fulfilled"),
    ("Cc1[nH]nc2c1N=C(c1ccccc1Cl)c1cnc(CN3CCOCC3)cc1N2 [Compound 35]", "Aurora B (Homo sapiens)", "Not fulfilled"),
    ("CCc1cc2c(cn1)C(c1ccccc1Cl)=Nc1c(n[nH]c1C)N2 [Control drug 1-2, reference compound]", "Aurora B (Homo sapiens)", "Fulfilled"),
]

In: Regarding Cc1[nH]nc2c1N=C(c1ccccc1Cl)c1cnc(N3CC4CC3CO4)cc1N2 (centres unmarked) [Compound 45] , kindly confirm whether its IC50 is beneath 5 nM.
Out: Fulfilled

In: Regarding CCN1CCN(Cc2cc3c(cn2)C(c2ccccc2Cl)=Nc2c(n[nH]c2C)N3)CC1 [Compound 33] , kindly confirm whether its IC50 is beneath 5 nM.
Out: Not fulfilled

###

Assay: PK evaluation in beagle dogs
Type: in vivo
Details: dog, plasma, po, orally 2 mg/kg single dose
readout: Tmax (h)
Your answer is read as h, so omit the unit and give the number.

GET /value?item= Cc1[nH]nc2c1N=C(c1ccccc1Cl)c1cnc(N3CCOCC3)cc1N2 [Crystal form I of compound 29] &field=Tmax returns 2

###

Target: Aurora A (Homo sapiens, UniProt O14965)
Test: Aurora A enzymatic activity test, FAM-labeled peptide, Caliper
Assay type: biochemical
Details: FAM-labeled peptide substrate, read-out: Kinase-inhibiting activity IC50 Aurora A
Catalogue of molecules with associated IC50

# molecule, systemTested, IC50
records = [
    ("Cc1[nH]nc2c1N=C(c1ccccc1Cl)c1cnc(N3CC4CC3CO4)cc1N2 (stereo not drawn) [Compound 45]", "Aurora A (Homo sapiens, UniProt O14965)", "1 nM"),
    ("CCc1cc2c(cn1)C(c1ccccc1Cl)=Nc1c(n[nH]c1C)N2 [Control drug 1-2, reference compound]", "Aurora A (Homo sapiens, UniProt O14965)", "1.6 nM"),
]

For the next question, use this molecule.
Lab entry: Aurora A (Homo sapiens, UniProt O14965) assay, molecule Cc1[nH]nc2c1N=C(c1ccccc1Cl)c1cnc(N3CCN(C4CC4)CC3)cc1N2 [Compound 44] , IC50 = 0.82 nM

FYI, the data here is from patent US11718620B2.
